Where do the numbers come from? From patent US20240158446A1.

target: GDP-bound KRAS wild-type protein (Homo sapiens); test: Binding to KRAS by surface plasmon resonance (SPR), Single Cycle Kinetics; conditions: SPR, Single Cycle Kinetics, GDP-bound KRAS wild-type protein; read-out: KRAS KD
Sequence (P01116 whole entry): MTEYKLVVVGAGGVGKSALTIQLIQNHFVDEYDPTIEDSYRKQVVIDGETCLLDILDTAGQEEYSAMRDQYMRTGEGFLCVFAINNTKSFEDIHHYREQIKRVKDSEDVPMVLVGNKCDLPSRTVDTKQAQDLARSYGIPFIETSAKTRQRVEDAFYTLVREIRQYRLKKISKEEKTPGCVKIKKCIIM
reported-property: Kd (nM)
Kindly answer with a numeric value in nM, unit omitted.

Completed entries (count: 2):
{"molecular-string": "CC[C@H](C)[C@@H]1NC(=O)[C@H](CC(C)C)N(C)C(=O)C[C@@H](C(=O)N2CCOCC2)N(C)C(=O)[C@H](C2CCCC2)N(C)C(=O)C2(CCCC2)NC(=O)[C@@H]2CC(F)(F)CN2C(=O)[C@H](CCc2ccc(C(F)(F)F)c(Cl)c2)NC(=O)CN(C)C(=O)[C@H](Cc2ccc(F)cc2)N2CCCCC[C@@H](C2=O)N(C)C(=O)CN(C)C1=O", "study-system": "GDP-bound KRAS wild-type protein (Homo sapiens)", "units-of-measure": "nM", "assay-value": 0.23}
{"molecular-string": "CCO[C@@H]1C[C@H]2C(=O)NC3(CC(C)(C)C3)C(=O)N(C)[C@@H](C(CC)CC)C(=O)N(C)[C@H](C(=O)N(C)C)CC(=O)N(C)[C@@H](CC(C)C)C(=O)N[C@@H]([C@@H](C)CC)C(=O)N(C)CC(=O)N(C)[C@H]3C/C=C\\CCN(C3=O)[C@@H](Cc3ccc(C(F)(F)F)cc3)C(=O)N(C)CC(=O)N[C@@H](CCc3ccc(Cl)c(Cl)c3)C(=O)N2C1", "study-system": "GDP-bound KRAS wild-type protein (Homo sapiens)", "units-of-measure": "nM", "assay-value": 0.47}

Then there is this compound:
So, `CC[C@H](C)[C@@H]1NC(=O)[C@H](CC(F)F)N(C)C(=O)C[C@@H](C(=O)N(C)CC)N(C)C(=O)[C@H](C2CCCC2)N(C)C(=O)C2(CC(C)(C)C2)NC(=O)[C@@H]2C[C@@H](C)CN2C(=O)[C@H](CCc2ccc(C(F)(F)F)c(Cl)c2)NC(=O)CN(C)C(=O)[C@H](Cc2ccc(C)cc2)N2CC/C=C\C[C@@H](C2=O)N(C)C(=O)CN(C)C1=O` ? Its Kd was 0.2
